B1: library; numbered along this chain (parent)
chain: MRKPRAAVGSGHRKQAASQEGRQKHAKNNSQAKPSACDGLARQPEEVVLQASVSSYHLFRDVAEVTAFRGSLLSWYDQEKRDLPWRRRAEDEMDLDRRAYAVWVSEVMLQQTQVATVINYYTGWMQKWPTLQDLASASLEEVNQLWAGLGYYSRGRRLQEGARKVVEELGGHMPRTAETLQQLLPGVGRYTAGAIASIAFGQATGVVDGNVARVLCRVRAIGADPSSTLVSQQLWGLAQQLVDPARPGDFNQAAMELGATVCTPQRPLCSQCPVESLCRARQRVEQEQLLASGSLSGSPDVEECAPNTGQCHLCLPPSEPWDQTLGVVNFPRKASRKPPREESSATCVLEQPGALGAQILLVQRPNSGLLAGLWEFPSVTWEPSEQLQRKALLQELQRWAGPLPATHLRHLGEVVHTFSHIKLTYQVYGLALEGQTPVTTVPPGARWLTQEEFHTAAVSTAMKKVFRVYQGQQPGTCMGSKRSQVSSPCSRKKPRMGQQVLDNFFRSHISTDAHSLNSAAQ

Variants of: B1
protocol-text: 8OG:A repair function score (normalized; synonymous = 0, nonsense = -1) (normalized log-likelihood score); higher = more repair activity (WT-like);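 note: cells sorted at 72 h after reporter transfection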
study-conditions: with 8OG:A DNA repair reporter (GFP) in HEK-293 MUTYH KO cells
reported-metric: 8OG:A repair function score

>  <variant-annotation>
Q394H

>  <value-reported>
0.21

$$$$
>  <variant-annotation>
V62H

>  <value-reported>
-0.0066

$$$$
>  <variant-annotation>
E106A

>  <value-reported>
-0.944

$$$$
>  <variant-annotation>
L158K

>  <value-reported>
-1.19

$$$$
>  <variant-annotation>
Q181C

>  <value-reported>
-0.121

$$$$
>  <variant-annotation>
T406V

>  <value-reported>
0.013

$$$$
>  <variant-annotation>
L109C

>  <value-reported>
-0.0119

$$$$
>  <variant-annotation>
D96L

>  <value-reported>
-0.43

$$$$
>  <variant-annotation>
A400N

>  <value-reported>
-0.913

$$$$
>  <variant-annotation>
W399Q

>  <value-reported>
-0.108

$$$$
>  <variant-annotation>
I421M

>  <value-reported>
-0.139

$$$$
>  <variant-annotation>
C489K

>  <value-reported>
-0.0226

$$$$
>  <variant-annotation>
P129N

>  <value-reported>
-0.266

$$$$
>  <variant-annotation>
G39L

>  <value-reported>
0.0565

$$$$
